Tested on: NCI-H460 tumor-bearing mice (lung cancer)
protocol.description: Biodistribution: lutetium accumulation in tumor, plasma and healthy tissues by ICP-MS
Assay type: in vivo
study.conditions: second table; plasma; 24 h
reported.endpoint: Plasma, % ID/g 24 h (% ID/g)
Could you give me the number in % ID/g? Just the number is fine.

Here's what some known entries look like.
Query: Plasma, % ID/g 24 h; subject: CC(C)c1cc(-c2nnc(O)n2-c2ccc(OC3CCN(C(=O)CCOCCOCCOCCOCCOCCOCCOCCOCCOCCOCCOCCOCCNC(=O)CN4CCN5CCN6CCN(CC4)CC(=O)[O][Lu]([O]C(=O)C5)[O]C(=O)C6)CC3)cc2)c(O)cc1O
0.02

Query: Plasma, % ID/g 24 h; subject: CCNC(=O)c1nnc(-c2cc(C(C)C)c(O)cc2O)n1-c1ccc(CC2CCN(C(=O)C[C@H](NC(=O)CC[C@H](C(=O)O)N3CCN4CCN5CCN(CC3)CC(=O)[O][Lu]([O]C(=O)C5)[O]C(=O)C4)C(=O)N[C@H](C)C(=O)N3CCC(Cc4ccc(-n5c(C(=O)NCC)nnc5-c5cc(C(C)C)c(O)cc5O)cc4)CC3)CC2)cc1
7.11

Now for another entry.
Query: Plasma, % ID/g 24 h; subject: CCNC(=O)c1nnc(-c2cc(C(C)C)c(O)cc2O)n1-c1ccc(OC2CCN(C(=O)CCNC(=O)[C@@H](CCC(=O)N3CCC(Oc4ccc(-n5c(C(=O)NCC)nnc5-c5cc(C(C)C)c(O)cc5O)cc4)CC3)NC(=O)CCOCCOCCOCCOCCOCCOCCOCCOCCOCCOCCOCCOCCNC(=O)CN3CCN4CCN5CCN(CC3)CC(=O)[O][Lu]([O]C(=O)C4)[O]C(=O)C5)CC2)cc1
0.45
